Values from PubChem BioAssay AID1053180

Listed here are compounds together with their documented activation.
Assay: activators of Pax4 gene expression, primary screen, RT-PCR, mouse alpha TC1 cells, single point (AID 1053180);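 further: Pax4 Ct normalized to GAPDH with activation seen as lower delta delta Ct; plate controls were plate neutral control wells for no effect and Pax4 plasmid positive control for full effect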
Conditions: Pax4 mRNA qPCR, 6 days, at 10 µM, hits give high values, 100% = Pax4 plasmid added at qPCR
The campaign covered roughly 9,600 compounds. About 20 (0.2%) were called active. The entries come from a sample that favours actives as a whole.
Record the value in %, omitting the unit from your answer.

Reference set (10 entries):
compound: COc1cccc(S(=O)(=O)N[C@H]2CC[C@@H](CC(=O)NC3Cc4ccccc4C3)O[C@@H]2CO)c1
readout value: 0.0015

compound: COc1ccc2c3c(n(C)c2c1)[C@H](CO)N(CC1CC1)CC31CN(C(=O)c2ccc3c(c2)OCO3)C1
readout value: 0.0045

compound: N#Cc1ccc(-c2ccc([C@@H]3[C@@H]4CN(Cc5cocn5)C[C@H]3N4)cc2)cc1
readout value: 0.128

compound: C/C=C/c1ccc([C@H]2[C@@H](CO)N3C(=O)CN(Cc4ccc(F)cc4)C[C@@H]23)cc1
readout value: 86.9

compound: CO[C@H](CN(C)Cc1ccc2c(c1)OCO2)[C@H](C)CN(C(=O)Nc1ccc(F)cc1)[C@H](C)CO
readout value: 0.0005

compound: O=C(C[C@@H]1C[C@@H]2c3cc(NS(=O)(=O)c4ccccc4)ccc3O[C@@H]2[C@H](CO)O1)NCC(F)(F)F
readout value: 0.001

compound: CNC[C@H]1Oc2cc(C#Cc3ccccc3OC)ccc2S(=O)(=O)N([C@H](C)CO)C[C@@H]1C
readout value: 0.402

compound: CCCN1C[C@H](C)[C@H](OC)CN(C)C(=O)c2ccc(NS(=O)(=O)c3cn(C)cn3)cc2OC[C@@H]1C
readout value: 0.0005

compound: CN(C)C(=O)c1ccc(-c2ccc(C3[C@@H]4CN(Cc5ccccc5Cl)C[C@H]3N4)cc2)cc1 (stereo not given in full)
readout value: 0.0085

compound: COc1ccc(C(=O)N2C[C@H]3[C@@H](c4ccccc42)[C@@H](CO)N3C(=O)Cc2ccccn2)cc1
readout value: 0

Value of activation reported for the compound COc1ccccc1-c1ccc(C2[C@@H]3CN(Cc4cccc(F)c4)C[C@H]2N3)cc1 (stereo not given in full) is 0.062

The compound identified as "C[C@H]1CNC(=O)[C@H](Cc2ccc(C(F)(F)F)cc2)CCn2nncc2COC1" registered its activation at 2.47

// field: activation; key: "C[C@H](CO)N1C[C@H](C)[C@@H](CN(C)C(=O)c2ccc3ccn(C)c3c2)OCc2cnnn2CCCC1=O" ; value = 0.0015

# compound "CCCNC(=O)[C@H]1[C@H](CO)[C@H]2Cn3c(ccc(/C=C/c4ccccc4)c3=O)[C@H]2N1CC1CC1" ; its activation = 0

Entry under test: "C[C@@H]1CCCCO[C@H](CN(C)Cc2ccncc2)[C@H](C)CN([C@@H](C)CO)C(=O)c2cc(NC(=O)Cc3ccccc3)ccc2O1" . Its activation was -0.0005

// activation lookup, compound = "CN(C)C(=O)c1cccc(-c2ccc([C@@H]3[C@@H](CO)N4CCCCN(CC5CCOCC5)C[C@@H]34)cc2)c1" , result: 0.001

Sample "C[C@@H]1CN([C@H](C)CO)C(=O)c2ccccc2-c2ccccc2CO[C@@H]1CN(C)Cc1ccc2c(c1)OCCN2C" ; activation observed: 0.075

activation for "O=C(C1CCOCC1)N1CC(=O)N2[C@H](C1)[C@@H](c1ccc(-c3cccnc3)cc1)[C@@H]2CO" is 0

Measured activation, "CC(C)[C@H]1COCn2nncc2CC[C@H](C)C(=O)N1" : 0.0005

Data point: "C/C=C/c1ccc([C@@H]2[C@H](CO)N3CCCCN(S(=O)(=O)c4ccc(OC)cc4)C[C@@H]23)cc1" ; activation = 0.0005

Measured activation of "COc1ccc(CN(C)C[C@@H]2Oc3ccc(NC(=O)Nc4ccc5c(c4)OCO5)cc3CC(=O)N([C@@H](C)CO)C[C@@H]2C)cc1" : 0.002

Please fill in: activation reported for "CNC[C@H]1Oc2cc(C#Cc3ccccc3OC)ccc2S(=O)(=O)N([C@@H](C)CO)C[C@@H]1C" = 0.371

Lab note: measured activation of "COCC(=O)N1[C@H](CO)[C@@H]2c3ccccc3N(C)C[C@@H]21" was 0.0025

Recorded activation (compound "C/C=C/c1ccc([C@H]2[C@@H](CO)N3C(=O)CN(Cc4ccc(F)cc4)C[C@H]23)cc1" ): 0

GET /value?item= "COCC(=O)Nc1ccc2c(c1)OC[C@H](C)N(C)C[C@H](C)[C@H](OC)CN(C)C2=O" &field=activation returns 0
